# kon listing for each entry below
# Target entity: uPAR (Homo sapiens)
# Construct: Recombinant human uPAR^1–283 was expressed; made in house; host or cells: Drosophila melanogaster S2 cells
# Sequence (Q03405 23-305): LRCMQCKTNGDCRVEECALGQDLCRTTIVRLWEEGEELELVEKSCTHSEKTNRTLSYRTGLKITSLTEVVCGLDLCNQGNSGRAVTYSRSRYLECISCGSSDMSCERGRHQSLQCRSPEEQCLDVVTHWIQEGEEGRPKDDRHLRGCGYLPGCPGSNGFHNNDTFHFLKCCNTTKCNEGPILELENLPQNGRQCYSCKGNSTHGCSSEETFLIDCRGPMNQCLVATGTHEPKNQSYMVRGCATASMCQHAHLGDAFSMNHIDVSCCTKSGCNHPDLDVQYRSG
# Experiment: SPR real-time binding kinetics, peptides in solution and immobilised uPAR
# Condition details: single cycle SPR, immobilised uPAR, 20 °C; read-out: kon
Positions of bridges follow the written chain, without caps; N, C: chain ends. Non-standard residues stand in square brackets, D forms with d. Residues, ends and D or L forms follow the SMILES beside them. *: point of attachment. DOTA = O=C(O)CN1CCN(CC(=O)O)CCN(CC(=O)*)CCN(CC(=O)O)CC1; Cha = N[C@@H](CC1CCCCC1)C(=O)O

Compound | Target entity | kon
CC(C)C[C@H](NC(=O)[C@H](Cc1ccc(O)cc1)NC(=O)[C@@H](CCCNC(=N)N)NC(=O)[C@@H](CO)NC(=O)[C@H](Cc1ccccc1)NC(=O)[C@H](CC1CCCCC1)NC(=O)[C@H](CC(=O)O)NC(=O)CN1CCN(CC(=O)O)CCN(CC(=O)O)CCN(CC(=O)O)CC1)C(=O)N[C@@H](Cc1c[nH]c2ccccc12)C(=O)N[C@@H](CO)C(=O)O [1b] | uPAR (Homo sapiens) | 207000 M⁻¹ s⁻¹
CC(C)C[C@H](NC(=O)[C@H](Cc1ccc(O)cc1)NC(=O)[C@@H](CCCNC(=N)N)NC(=O)[C@@H](CO)NC(=O)[C@H](Cc1ccccc1)NC(=O)[C@H](CC1CCCCC1)NC(=O)[C@H](CC(=O)O)NC(=O)CNC(=O)CNC(=O)[C@@H](CO)NC(=O)CNC(=O)[C@H](CCC(=O)O)NC(=O)[C@H](CCC(=O)O)NC(=O)CN1CCN(CC(=O)O)CCN(CC(=O)O)CCN(CC(=O)O)CC1)C(=O)N[C@@H](Cc1c[nH]c2ccccc12)C(=O)N[C@@H](CO)C(N)=O [10b] ({DOTA}-EEG[dS]GGD[Cha]F[dS][dR]YLWS-NH2) | uPAR (Homo sapiens) | 430000 M⁻¹ s⁻¹
CC(C)C[C@@H]1NC(=O)[C@H](Cc2ccc(O)cc2)NC(=O)[C@H](NC(=O)[C@@H](CO)NC(=O)[C@H](Cc2ccccc2)NC(=O)[C@H](CC2CCCCC2)NC(=O)[C@H](CC(=O)O)NC(=O)CN2CCN(CC(=O)O)CCN(CC(=O)O)CCN(CC(=O)O)CC2)CSSC[C@@H](C(N)=O)NC(=O)[C@H](Cc2c[nH]c3ccccc23)NC1=O [9b] ({DOTA}-D[Cha]F[dS][dC]YLWC-NH2; disulfide 5-9) | uPAR (Homo sapiens) | 644000 M⁻¹ s⁻¹
